test system: HLF (human embryonic lung fibroblast); assay: Cytotoxicity test on nontumorigenic cells, HLF; assay type: cell-based; details: Homo sapiens, Fibroblast, read-out: Toxicity to normal cells, IC50 HLF
metric: pIC50
Numbers only, as −log10 of the molar value.

State its pIC50 on HLF (human embryonic lung fibroblast): C=CC(=O)Nc1cc(Nc2nccc(-c3cn(C)c4ccccc34)n2)c(OC)cc1N(C)CCN(C)C [Osimertinib, reference compound]
5.49

====

System: HLF (human embryonic lung fibroblast)
Assay: Cytotoxicity test on nontumorigenic cells, HLF
Format: cell-based
Conditions: Homo sapiens, Fibroblast; HLF, mean ± SE; read-out: Toxicity to normal cells, IC50 HLF
Text: It is critical to evaluate the balance between the safety and efficacy of drugs for the development of new drugs; thus, we then conducted a cytotoxicity test on […] types of nontumorigenic cell lines from different origins, including LO2 (human normal liver cells), HK2 (human kidney proximal convoluted tubule epithelial cells), HLF (human embryonic lung fibroblast), 293A (human embryonic kidney cells), and HUVEC (human umbilical vein endothelial cells). […]
metric: pIC50
One number for each entry, as −log10 of the molar value.

Given the entry C=CC(=O)Nc1cc(Nc2ncc(Cl)c(Nc3ccc(Cl)cc3[S+]([O-])C(C)C)n2)c(OC)cc1C1CCN(C)CC1 (stereo not shown) , report its measured pIC50.
4.55

====

biological target: EML4-ALK (Homo sapiens, UniProt Q9UM73)
Sequence (Q9HC35 1-496, one chain of several, further chain): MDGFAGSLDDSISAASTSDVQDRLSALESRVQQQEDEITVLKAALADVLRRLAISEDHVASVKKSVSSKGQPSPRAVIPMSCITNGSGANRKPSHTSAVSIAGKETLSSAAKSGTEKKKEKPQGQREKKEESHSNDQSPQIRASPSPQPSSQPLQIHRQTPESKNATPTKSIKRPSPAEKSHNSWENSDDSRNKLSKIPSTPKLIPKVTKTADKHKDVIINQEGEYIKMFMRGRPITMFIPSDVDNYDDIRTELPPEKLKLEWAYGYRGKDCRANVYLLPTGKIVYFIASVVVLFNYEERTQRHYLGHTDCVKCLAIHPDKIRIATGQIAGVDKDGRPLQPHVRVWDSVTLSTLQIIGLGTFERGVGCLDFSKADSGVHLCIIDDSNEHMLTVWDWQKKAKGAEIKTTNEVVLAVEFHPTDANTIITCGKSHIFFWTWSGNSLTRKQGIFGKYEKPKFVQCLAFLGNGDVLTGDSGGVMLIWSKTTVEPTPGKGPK
metric: IC50 (nM)
Numbers only, in nM.

Given the entry C=CC(=O)Nc1cc(Nc2ncc(Cl)c(Nc3ccc(Cl)cc3[S+]([O-])C(C)C)n2)c(OC)cc1C1CCN(C)CC1 (stereo not shown) , report its measured IC50.
56.3

====

biological target: ALK wild-type kinase (Homo sapiens)
Sequence (Q9UM73 19-1620): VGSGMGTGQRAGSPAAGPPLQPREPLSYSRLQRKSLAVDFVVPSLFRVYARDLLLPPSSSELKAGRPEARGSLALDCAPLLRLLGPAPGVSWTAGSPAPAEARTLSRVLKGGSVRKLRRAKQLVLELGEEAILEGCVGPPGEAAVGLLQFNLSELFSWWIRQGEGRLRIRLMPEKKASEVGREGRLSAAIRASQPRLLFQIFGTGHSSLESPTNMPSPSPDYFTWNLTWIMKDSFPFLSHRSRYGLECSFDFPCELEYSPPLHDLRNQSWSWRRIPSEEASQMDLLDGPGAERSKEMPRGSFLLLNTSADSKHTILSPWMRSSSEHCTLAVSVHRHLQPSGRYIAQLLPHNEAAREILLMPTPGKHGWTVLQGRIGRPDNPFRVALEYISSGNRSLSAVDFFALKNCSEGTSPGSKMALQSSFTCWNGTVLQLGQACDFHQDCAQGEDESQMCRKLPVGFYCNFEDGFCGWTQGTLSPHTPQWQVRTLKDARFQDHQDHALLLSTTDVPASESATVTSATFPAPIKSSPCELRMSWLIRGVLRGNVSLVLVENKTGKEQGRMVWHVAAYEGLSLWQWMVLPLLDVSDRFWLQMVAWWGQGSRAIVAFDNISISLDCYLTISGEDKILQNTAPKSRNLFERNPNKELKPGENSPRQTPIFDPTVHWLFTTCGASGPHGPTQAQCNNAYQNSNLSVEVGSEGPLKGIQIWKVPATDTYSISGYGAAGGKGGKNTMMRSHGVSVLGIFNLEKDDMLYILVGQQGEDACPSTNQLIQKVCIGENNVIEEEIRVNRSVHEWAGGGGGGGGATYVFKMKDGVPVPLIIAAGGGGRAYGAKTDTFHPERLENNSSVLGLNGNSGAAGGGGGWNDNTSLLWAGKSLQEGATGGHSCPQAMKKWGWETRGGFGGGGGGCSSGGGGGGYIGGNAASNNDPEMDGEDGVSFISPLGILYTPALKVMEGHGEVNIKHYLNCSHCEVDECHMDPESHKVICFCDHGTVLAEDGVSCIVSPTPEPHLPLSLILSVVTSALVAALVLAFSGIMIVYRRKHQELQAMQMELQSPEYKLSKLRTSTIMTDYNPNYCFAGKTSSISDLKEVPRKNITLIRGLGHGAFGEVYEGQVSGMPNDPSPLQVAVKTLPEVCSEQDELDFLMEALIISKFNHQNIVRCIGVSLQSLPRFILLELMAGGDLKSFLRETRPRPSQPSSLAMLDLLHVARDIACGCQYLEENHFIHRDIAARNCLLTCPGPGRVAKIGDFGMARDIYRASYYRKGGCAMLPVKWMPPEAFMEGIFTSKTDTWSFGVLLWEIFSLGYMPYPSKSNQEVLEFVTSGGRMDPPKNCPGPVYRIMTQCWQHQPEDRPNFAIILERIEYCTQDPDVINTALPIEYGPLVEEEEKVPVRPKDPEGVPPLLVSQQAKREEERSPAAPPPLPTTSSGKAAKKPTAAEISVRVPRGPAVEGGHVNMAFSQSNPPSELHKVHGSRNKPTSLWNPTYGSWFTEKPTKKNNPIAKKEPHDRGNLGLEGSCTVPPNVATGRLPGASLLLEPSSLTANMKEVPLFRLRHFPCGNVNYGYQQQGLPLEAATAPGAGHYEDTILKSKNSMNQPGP
metric: IC50 (nM)
One number for each entry, in nM.

Given the entry C=CC(=O)Nc1cc(Nc2ncc(Cl)c(Nc3ccc(Cl)cc3[S+]([O-])C(C)C)n2)c(OC)cc1C1CCN(C)CC1 (stereo not shown) [9j] , report its measured IC50.
130

====

system: HUVEC (human umbilical vein endothelial cells); assay: Cytotoxicity test on nontumorigenic cells, HUVEC; type: cell-based; settings: Homo sapiens; HUVEC, mean ± SE; read-out: Toxicity to normal cells, IC50 HUVEC
metric: IC50 (µM)
Numbers only, in µM.

C=CC(=O)Nc1cc(Nc2nccc(-c3cn(C)c4ccccc34)n2)c(OC)cc1N(C)CCN(C)C [Osimertinib, reference compound] :: 4.34

State its IC50 on HUVEC (human umbilical vein endothelial cells): C=CC(=O)Nc1cc(Nc2ncc(Cl)c(Nc3ccc(Cl)cc3[S+]([O-])C(C)C)n2)c(OC)cc1C1CCN(C)CC1 (centres unmarked) [9j]
21.4

====

target: EGFR wild-type kinase (Homo sapiens, UniProt P00533)
Sequence (P00533 25-1210): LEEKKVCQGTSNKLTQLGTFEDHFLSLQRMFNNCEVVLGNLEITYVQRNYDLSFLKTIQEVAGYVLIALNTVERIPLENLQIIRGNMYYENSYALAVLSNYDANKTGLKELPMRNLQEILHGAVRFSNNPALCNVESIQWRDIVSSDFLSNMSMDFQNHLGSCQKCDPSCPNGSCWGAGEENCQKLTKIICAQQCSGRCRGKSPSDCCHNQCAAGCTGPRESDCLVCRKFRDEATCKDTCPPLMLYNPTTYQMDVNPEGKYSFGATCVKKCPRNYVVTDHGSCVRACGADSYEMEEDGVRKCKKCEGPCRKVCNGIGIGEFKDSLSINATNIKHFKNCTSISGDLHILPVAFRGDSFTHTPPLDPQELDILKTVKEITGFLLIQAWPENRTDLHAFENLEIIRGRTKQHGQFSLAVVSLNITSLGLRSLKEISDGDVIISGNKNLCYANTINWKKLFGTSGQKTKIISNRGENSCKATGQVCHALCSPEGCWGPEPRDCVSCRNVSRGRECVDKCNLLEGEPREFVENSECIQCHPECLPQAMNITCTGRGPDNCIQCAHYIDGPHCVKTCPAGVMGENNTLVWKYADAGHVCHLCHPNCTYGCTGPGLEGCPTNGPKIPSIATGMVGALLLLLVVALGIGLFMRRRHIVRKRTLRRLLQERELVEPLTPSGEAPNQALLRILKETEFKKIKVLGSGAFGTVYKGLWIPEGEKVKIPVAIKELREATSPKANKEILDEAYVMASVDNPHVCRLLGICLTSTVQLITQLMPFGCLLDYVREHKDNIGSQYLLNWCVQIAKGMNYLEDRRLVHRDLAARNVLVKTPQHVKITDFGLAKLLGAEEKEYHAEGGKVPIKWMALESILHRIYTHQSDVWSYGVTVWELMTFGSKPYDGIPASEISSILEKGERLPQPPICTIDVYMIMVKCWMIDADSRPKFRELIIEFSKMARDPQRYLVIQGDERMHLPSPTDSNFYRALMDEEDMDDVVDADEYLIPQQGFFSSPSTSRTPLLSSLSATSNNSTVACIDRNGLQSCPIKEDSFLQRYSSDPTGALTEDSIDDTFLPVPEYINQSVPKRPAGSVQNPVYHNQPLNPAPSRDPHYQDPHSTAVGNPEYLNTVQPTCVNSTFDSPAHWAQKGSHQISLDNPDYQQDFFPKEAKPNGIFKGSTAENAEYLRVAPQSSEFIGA
metric: pIC50
Numbers only, as −log10 of the molar value.

Given the entry C=CC(=O)Nc1cc(Nc2ncc(Cl)c(Nc3ccc(Cl)cc3[S+]([O-])C(C)C)n2)c(OC)cc1C1CCN(C)CC1 (stereo not shown) , report its measured pIC50.
6.63
